experiment: chemical genetic growth profiling, strain panel (AID 1159580);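 note: tested at 20 µM; growth read once vehicle control cultures reached saturation at 30 °C; 1 = growth at the plate median or of vehicle wells; lower values mean less growth of the strain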; conditions: S. cerevisiae deletion strains, growth OD, locus YNL250W, strain rad50, active compounds read low
In all, about 5,500 compounds went through this assay and about 2,000 (36%) were called active. Not shown: some 18% with an inconclusive outcome. This is one part of the list.
Provide the reported normalized growth of each item.
Give bare numbers.

The following compounds have reported results that may help.
compound="Cc1c(C)c2c(c(C)c1O)CCC(C)(CCCC(C)CCCC(C)CCCC(C)C)O2 (configuration not stated)" reported_result=1.01
compound="CC(C)=CCCC(C)C1CC[C@@]2(C)C3=C(CC[C@]12C)C1(C)CC[C@H](O)C(C)(C)C1CC3 (some centres not stated)" reported_result=0.966
compound=CN(C)CCCN1c2ccccc2Sc2ccccc21 reported_result=1.01
compound=CNCCCC12CCC(c3ccccc31)c1ccccc12 reported_result=0.982

For each listed entry, give its normalized growth.
1. CC(=O)N[C@@H](Cc1c[nH]c2ccccc12)C(N)=O
2. CCOC(=O)NNc1nncc2ccccc12
3. CNNC

**A:**
[0.989, 0.995, 0.997]

* * *

Provide the reported normalized growth of each item.
test: chemical genetic growth profiling, strain panel (AID 1159580); details: S. cerevisiae deletion strains, growth OD, locus YDR363W, strain ESC2, active compounds read low
In all, about 5,500 compounds went through this assay and about 2,000 (36%) were called active. Another 18% or so got no clear call; they are omitted. This is one part of the list.
Give bare numbers.

compound=CNCCCC12CCC(c3ccccc31)c1ccccc12 reported_result=1.01
compound=CC[C@@H](C)[C@H]1O[C@]2(CC[C@@H]1C)C[C@@H]1C[C@@H](C/C=C(\C)[C@@H](O[C@H]3C[C@H](OC)[C@@H](O[C@H]4C[C@H](OC)[C@@H](O)[C@H](C)O4)[C@H](C)O3)[C@@H](C)/C=C/C=C3\CO[C@@H]4[C@H](O)C(C)=C[C@@H](C(=O)O1)[C@]34O)O2 reported_result=0.613
compound="C[N+]1(C)CCOC(O)(c2ccc(-c3ccc(C4(O)C[N+](C)(C)CCO4)cc3)cc2)C1 (stereo unspecified)" reported_result=1.02
compound="CC(N=C(NC#N)Nc1ccncc1)C(C)(C)C (stereo unspecified)" reported_result=0.904
compound=Cc1cn[nH]c1 reported_result=1.02

Shifting focus to the compound that follows.
Recorded normalized growth (compound CNCCCC1c2ccccc2C=Cc2ccccc21 ): 1.03

* * *

assay: chemical genetic growth profiling, strain panel (AID 1159580); conditions: S. cerevisiae deletion strains, growth OD, locus YAL040C, strain CLN3, active compounds read low
The campaign covered roughly 5,500 compounds. About 2,000 (36%) were called active. Another 18% or so got no clear call; they are omitted. This is one part of the list.
MEASUREMENT NAME: normalized growth
One number for each entry.

For each listed entry, give its normalized growth.
1. Cc1o[nH]c(=O)c1CC(N)C(=O)O (centres undefined)
2. C[C@]12C=CC(=O)C=C1CC[C@@H]1C2=CC[C@]2(C)[C@@H](C(=O)CN3CCN(c4cc(N5CCCC5)nc(N5CCCC5)n4)CC3)CC[C@@H]12
3. Cc1[nH]c2ccc(O)cc2c1CCN
4. CN(C)CCCN1c2ccccc2Sc2ccc(Cl)cc21
5. Nc1ncn(C2OC(CO)C(O)C2O)c(=O)n1 (centres undefined)

**A:**
1: 1; 2: 0.998; 3: 1; 4: 0.992; 5: 0.999

For each listed entry, give its normalized growth.
1. C[C@@H](NC(=O)/C(C#N)=C/c1ccc(O)c(O)c1)c1ccccc1
2. CN(C)CCCN1c2ccccc2Sc2ccc(C(F)(F)F)cc21
3. NCCCNCCCCNCCCN
4. CN(C)CCCN1c2ccccc2CCc2ccc(Cl)cc21

**A:**
0.993
0.99
0.997
1.02

* * *

assay: chemical genetic growth profiling, strain panel (AID 1159580); conditions: S. cerevisiae deletion strains, growth OD, locus YPL240C, strain hsp82, active compounds read low
Out of some 5,500 compounds screened, about 2,000 (36%) were called active. Another 18% or so got no clear call; they are omitted. The list shows a part of the results.
Provide the reported normalized growth of each item.
Give bare numbers.

The following compounds have reported results that may help.
compound="CC(C)CCCC(C)[C@H]1CCC2C3C(=O)C=C4C[C@@H](O)CC[C@]4(C)C3CC[C@@]21C (stereo partly drawn)" reported_result=0.985
compound=NC(=O)NC(=O)Cc1ccccc1 reported_result=0.997
compound=CS(=O)(=O)Nc1ccc([N+](=O)[O-])cc1Oc1ccccc1 reported_result=0.978
compound=CCCc1cc(=O)[nH]c(=S)[nH]1 reported_result=1.01
compound="CC(CCc1ccccc1)NCC(O)c1ccc(O)c(C(N)=O)c1 (stereo not drawn)" reported_result=1.01
compound="CC(=O)O[C@H]1CC[C@@]2(C)C(=CC(=O)C3C4CCC(C(C)CCCC(C)C)[C@@]4(C)CCC32)C1 (stereo partly drawn)" reported_result=0.993
compound="CCC(C)C(=O)OC1[C@@H]2CC3=C4CC(=O)O[C@@H](c5ccoc5)[C@]4(C)CCC3[C@@](C)(C2=O)[C@@H](CC(=O)OC)C1(C)C (stereo partly drawn)" reported_result=1
compound=Nc1ccc(C(=O)O)cc1 reported_result=1.01
compound="Cc1c(C)c2c(c(C)c1O)CCC(C)(CCCC(C)CCCC(C)CCCC(C)C)O2 (stereo not drawn)" reported_result=0.98
compound=Cc1scc2c1N(C(=O)CN1CCN(C)CC1)c1ccccc1NC2=O reported_result=0.979

For each listed entry, give its normalized growth.
1. CCOC(=O)NNc1nncc2ccccc12
2. NCC(N)C(=O)c1ccccc1 (stereo not drawn)
3. CC(=O)c1cc(CC=C(C)C)c(O)c(CC=C(C)C)c1

**A:**
[1.01, 1.02, 1.02]

* * *

assay: chemical genetic growth profiling, strain panel (AID 1159580);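 note: tested at 20 µM; growth read once vehicle control cultures reached saturation at 30 °C; 1 = growth at the plate median or of vehicle wells; lower values mean less growth of the strain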; details: S. cerevisiae deletion strains, growth OD, locus YDL017W, strain CDC7, active compounds read low
Screen size: about 5,500 compounds; about 2,000 (36%) were called active. Not shown: some 18% with an inconclusive outcome. The list shows a part of the results.
MEASUREMENT NAME: normalized growth
Numbers only.

The following compounds have reported results that may help.
compound=CC(=O)c1ccc(Cl)c(N=Cc2cc(Cl)cc(Cl)c2O)c1 reported_result=0.944
compound=Cc1onc(-c2c(F)cccc2Cl)c1/C(N)=N\OC(=O)c1ccc(C(C)(C)C)cc1 reported_result=0.993
compound=CC(C)(C)c1cc(C(=O)NNc2cccc(Cl)c2)n(Cc2ccccc2)n1 reported_result=0.987
compound=CC(C)(C)c1cc(C(=O)Nc2ccc3c(c2)OCO3)n(Cc2ccc(F)cc2)n1 reported_result=0.989
compound=Cc1ccc(-c2csc(-c3ccncc3)n2)cc1 reported_result=0.922
compound="O=C(CSC1=NNC(c2ccccn2)S1)Nc1ccccc1 (centres undefined)" reported_result=1.01
compound=Brc1ccc(-c2csc(-c3ccncc3)n2)cc1 reported_result=0.923
compound=COC(=O)c1sccc1NS(=O)(=O)c1cc(Cl)cc(Cl)c1 reported_result=0.954

Shifting focus to the compound that follows.
Recorded normalized growth (compound CSc1n[nH]c(-c2cc(C(C)(C)C)oc2C)c1C#N ): 0.953

* * *

assay: chemical genetic growth profiling, strain panel (AID 1159580);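 note: tested at 20 µM; growth read once vehicle control cultures reached saturation at 30 °C; 1 = growth at the plate median or of vehicle wells; lower values mean less growth of the strain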; conditions: S. cerevisiae deletion strains, growth OD, locus YOR119C, strain RIO1, active compounds read low
The whole screen tested about 5,500 compounds, of which about 2,000 (36%) were called active. Inconclusive results (about 18%) are left out. This is one part of the list.
MEASUREMENT NAME: normalized growth
Answers are plain numbers.

The following compounds have reported results that may help.
line_notation=CC(C)(C)c1cc(C(=O)NNc2cccc(Cl)c2)n(Cc2ccccc2)n1 reported_result=0.978
line_notation=Cc1nn(-c2cccc(Cl)c2)c2oc(=O)cc(C(F)(F)F)c12 reported_result=0.544
line_notation=O=C(NOC(=O)c1ccccc1)c1ccccc1 reported_result=0.108

Shifting focus to the compound that follows.
Recorded normalized growth (compound COC(=O)C1=C(Nc2ccccc2NS(=O)(=O)c2ccc(C(F)(F)F)cc2Cl)CSC1 ): 1.02

* * *

experiment: chemical genetic growth profiling, strain panel (AID 1159580);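 note: tested at 20 µM; growth read once vehicle control cultures reached saturation at 30 °C; 1 = growth at the plate median or of vehicle wells; lower values mean less growth of the strain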; settings: S. cerevisiae deletion strains, growth OD, locus YHR027C, strain rpn1, active compounds read low
Screen size: about 5,500 compounds; about 2,000 (36%) were called active. Roughly 18% stayed inconclusive and do not appear here. This is one part of the list.
MEASUREMENT NAME: normalized growth
Give bare numbers.

compound="CO[C@H]1CC(O[C@@H]2/C(C)=C/C[C@@H]3C[C@@H](C[C@]4(CC[C@H](C)[C@@H](C5CCCCC5)O4)O3)OC(=O)[C@@H]3C=C(C)/C(=N\\O)[C@H]4OC/C(=C\\C=C\\[C@@H]2C)[C@]43O)O[C@@H](C)C1O (stereo partly drawn)" reported_result=0.994
compound=Nc1ccc(S(=O)(=O)NC(=O)c2ccccc2)cc1 reported_result=0.993

For each listed entry, give its normalized growth.
1. CCC(C)[C@H]1O[C@]2(C=C[C@@H]1C)C[C@@H]1C[C@@H](C/C=C(\C)[C@@H](OC3C[C@H](OC)C(O[C@H]4C[C@H](OC)[C@@H](O)[C@H](C)O4)[C@H](C)O3)[C@@H](C)/C=C/C=C3\CO[C@@H]4[C@H](O)C(C)=C[C@@H](C(=O)O1)[C@]34O)O2 (stereo partly drawn)
2. COc1cc(C/C=C/c2ccccc2)c(OC)cc1O

**A:**
0.977
0.945

For each listed entry, give its normalized growth.
1. CC(=O)Oc1ccc(O)cc1
2. C/C=C\C1=C(C(=O)O)N2C(=O)C(NC(=O)C(N)c3ccc(O)cc3)C2SC1 (stereo not drawn)
3. CC1=CC(=O)c2c(O)cccc2C1=O
4. CS(=O)(=O)c1ccc([C@@H](O)[C@@H](CO)NC(=O)C(Cl)Cl)cc1
5. O=C(OCc1ccccc1)c1ccccc1

**A:**
1. 0.987
2. 0.993
3. 0.0589
4. 1.02
5. 0.979

For each listed entry, give its normalized growth.
1. CNCCCC12CCC(c3ccccc31)c1ccccc12
2. O=C(O)c1ccccc1
3. CC(=O)Oc1ccc(/C=C/c2cc(OC(C)=O)cc(OC(C)=O)c2)cc1

**A:**
0.96
0.944
0.975

Recorded normalized growth (compound CN(C)[C@@H]1C(=O)C(C(N)=O)=C(O)[C@@]2(O)C(=O)C3=C(O)c4c(O)cccc4[C@@](C)(O)[C@H]3[C@H](O)[C@@H]12 ): 1.02

Data credit: PubChem BioAssay AID1159580
